details: human gut metagenome, 24 h, 2 µM; also: call rule not given here
Measurement Type: Bacterial Biotransformation

compound="CC12CC3CC(C)(C1)CC(N)(C3)C2 [MEMANTINE]" measurement_type="Bacterial Biotransformation" endpoint_result="Compound NOT metabolized"
compound="OC(c1cc(C(F)(F)F)nc2c(C(F)(F)F)cccc12)C1CCCCN1 (configuration not stated)" measurement_type="Bacterial Biotransformation" endpoint_result="Compound metabolized"
compound="CC(C)c1c(CN(C)C(C)Cc2ccccc2)n(C)n(-c2ccccc2)c1=O (configuration not stated)" measurement_type="Bacterial Biotransformation" endpoint_result="Compound metabolized"
compound="COCCCC/C(=N\\OCCN)c1ccc(C(F)(F)F)cc1.O=C(O)/C=C\\C(=O)O [FLUVOXAMINE MALEATE]" measurement_type="Bacterial Biotransformation" endpoint_result="Compound metabolized"
compound="COc1cc(NC(C)CCCN)c2ncccc2c1.O=P(O)(O)O.O=P(O)(O)O (configuration not stated) [PRIMAQUINE PHOSPHATE]" measurement_type="Bacterial Biotransformation" endpoint_result="Compound NOT metabolized"
compound="CCCC(C)(COC(N)=O)COC(=O)NC(C)C (configuration not stated)" measurement_type="Bacterial Biotransformation" endpoint_result="Compound metabolized"
compound=CC(=O)O[C@H]1C(=O)[C@@]2(C)[C@H]([C@H](OC(=O)c3ccccc3)[C@]3(O)C[C@H](OC(=O)[C@H](O)[C@@H](NC(=O)c4ccccc4)c4ccccc4)C(C)=C1C3(C)C)[C@]1(OC(C)=O)CO[C@@H]1C[C@@H]2O measurement_type="Bacterial Biotransformation" endpoint_result="Compound metabolized"
